# System: KB
# experimental.details: Cytotoxicity against human KB cells assessed as growth inhibition at 0.1 ug/ml after 24 hrs by MTT assay
# Assay type: functional
# condition.info: read-out: GI
We begin with a simple list: items and their reported inhibition of growth at 0.1 µg/mL.
Write the value in % as a bare number.

Enquiry: For the molecule O=C(CCCCC(S)CCS)Nc1cccc(C(F)(F)F)c1 (stereo unspecified) , give its measured inhibition of growth at 0.1 µg/mL value.
Return: 8.41

Enquiry: Give inhibition of growth at 0.1 µg/mL for CC(=O)SCCC(CCCCC(=O)Nc1cccc(Cl)c1)SC(C)=O (stereo unspecified)
Return: 5.72

Enquiry: Assign inhibition of growth at 0.1 µg/mL to the following record: O=C(CCCCC(CCSC(=O)c1ccccc1)SC(=O)c1ccccc1)Nc1ccccc1Cl (stereo unspecified)
Return: 3.62

Others:
Enquiry: Give reported inhibition of growth at 0.1 µg/mL value for CC(=O)SCCC(CCCCC(=O)Nc1ccccc1)SC(C)=O (stereo unspecified)
Return: 7.24

Enquiry: State its inhibition of growth at 0.1 µg/mL: O=C(O)CCCCC1CCSS1 (stereo unspecified)
Return: 0.14

Enquiry: Write down inhibition of growth at 0.1 µg/mL measured for item O=C(CCCCC(CCSC(=O)c1ccccc1)SC(=O)c1ccccc1)Nc1ccccc1 (stereo unspecified)
Return: 1.52

---

inhibition of growth at 10 µg/mL listing for selected molecules.
# System: Bel-7402
# experimental.details: Cytotoxicity against human Bel7402 cells assessed as growth inhibition at 10 ug/ml after 24 hrs by MTT assay
# Format: functional
# condition.info: Bel-7402, 24 h, read-out: GI
Output spec: scalar in %, unitless text.

Here is how some molecules turned out for inhibition of growth at 10 µg/mL.
Enquiry: Indicate its recorded inhibition of growth at 10 µg/mL; the molecule in question is O=C(CCCCC1CCSS1)Nc1cccc2ccccc12 (stereo not drawn)
Return: 6.27

Enquiry: Could you please provide reported inhibition of growth at 10 µg/mL for O=C(CCCCC(S)CCS)NO (stereo not drawn) ? Thanks!
Return: 28.2

Enquiry: Identify measured inhibition of growth at 10 µg/mL corresponding to COc1ccc(NC(=O)CCCCC(S)CCS)cc1 (stereo not drawn)
Return: 10.4

Enquiry: Provide one value: measured inhibition of growth at 10 µg/mL of O=C(CCCCC(S)CCS)Nc1ccc([N+](=O)[O-])cc1 (stereo not drawn)
Return: 14.4

Enquiry: Tell me measured inhibition of growth at 10 µg/mL for O=C(CCCCC1CCSS1)Nc1cccc(Cl)c1 (stereo not drawn) please.
Return: 4.15

New cases:
Enquiry: Give the reported value of inhibition of growth at 10 µg/mL for this record: O=C(CCCCC1CCSS1)Nc1ccccn1 (stereo not drawn)
Return: 5.77

Enquiry: Name the recorded inhibition of growth at 10 µg/mL of the molecule listed here: Cc1cccc(NC(=O)CCCCC2CCSS2)c1 (stereo not drawn)
Return: 9.01

Enquiry: Specify reported inhibition of growth at 10 µg/mL for the molecule shown: O=C(O)CCCCC1CCSS1 (stereo not drawn)
Return: 4.77

Enquiry: Read the entry O=C(CCCCC1CCSS1)NO (stereo not drawn) and write its reported inhibition of growth at 10 µg/mL.
Return: 11.8

---

# Test system: Bel-7402
# experimental.details: Cytotoxicity against human Bel7402 cells assessed as growth inhibition at 0.1 ug/ml after 24 hrs by MTT assay
# Type: functional
# condition.info: Bel-7402, 24 h, read-out: GI
Kind request: treat 7% as inclusive, so inhibition of growth at 0.1 µg/mL at 7% or higher is y, anything lower is n.

Enquiry: Confirm if inhibition of growth at 0.1 µg/mL reported for the compound O=C(CCCCC1CCSS1)NO (centres undefined) is 7% or above.
Return: y

Enquiry: Is inhibition of growth at 0.1 µg/mL for O=C(CCCCC1CCSS1)Nc1ccccn1 (centres undefined) at or above 7%?
Return: n

Enquiry: Could you tell me if the measured inhibition of growth at 0.1 µg/mL of Cc1cccc(NC(=O)CCCCC(S)CCS)c1 (centres undefined) reaches 7% or more?
Return: y

Enquiry: Kindly determine if inhibition of growth at 0.1 µg/mL recorded for O=C(CCCCC(CCSC(=O)c1ccccc1)SC(=O)c1ccccc1)Nc1ccccc1Cl (centres undefined) is above or exactly 7%.
Return: n

Enquiry: Does the reported inhibition of growth at 0.1 µg/mL for O=C(CCCCC(CCSC(=O)c1ccccc1)SC(=O)c1ccccc1)Nc1ccc(Cl)cc1 (centres undefined) fall at or above the 7% mark?
Return: y

Enquiry: Check this compound for inhibition of growth at 0.1 µg/mL at or above 7%: O=C(CCCCC1CCSS1)Nc1cccc(Cl)c1 (centres undefined)
Return: n

Enquiry: Can O=C(CCCCC(S)CCS)Nc1ccc([N+](=O)[O-])c(C(F)(F)F)c1 (centres undefined) be said to have inhibition of growth at 0.1 µg/mL at or above 7%?
Return: n

Enquiry: Threshold query (inhibition of growth at 0.1 µg/mL >= 7%) on O=C(O)CCCCC(CCSC(=O)c1ccccc1)SC(=O)c1ccccc1 (centres undefined)
Return: n

Enquiry: Does O=C(CCCCC(S)CCS)NO (centres undefined) have a reported inhibition of growth at 0.1 µg/mL of at least 7%?
Return: n

Enquiry: Say whether COc1ccc(NC(=O)CCCCC2CCSS2)cc1 (centres undefined) shows inhibition of growth at 0.1 µg/mL of 7% or more.
Return: n

Consider now this further compound.
Enquiry: Would you say CC(=O)SCCC(CCCCC(=O)Nc1ccccc1Cl)SC(C)=O (centres undefined) shows inhibition of growth at 0.1 µg/mL at minimum 7%?
Return: n

The measurements presented in this section are drawn from ChEMBL document CHEMBL1157124.
